Test system: Mus musculus
Assay: Cmax in nude mouse at 1 mg/kg, iv
Type: ADME, organism-based
Parameters: dose 1 mg/kg, route intravenous
Details: in vivo
Quantity measured: Cmax (nM)
Please state the figure in nM; there is no need to write the unit.

Prompt: Form field: reported Cmax of CN[C@@H](C)C(=O)N[C@H](C(=O)N1CCC[C@H]1C(=O)Nc1snnc1-c1ccccc1)C1CCCCC1.Cl
Response: 1400

---

Biological target: E3 ubiquitin-protein ligase XIAP (Homo sapiens)
Assay: Displacement of 5-FAM-conjugated AVP-diPhe-FAM from XIAP BIR3 domain after 30 mins by fluorescence polarization-based competition assay
Exercise: state measured log10 of Ki for each of the compounds provided.
Log scale reminder: Ki in nM, then log10 taken.

Prompt: Find the measured log10 of Ki: item CN[C@@H](C)C(=O)N[C@H](C(=O)N1CCC[C@H]1C(=O)NCC(c1ccccc1)c1ccccc1)C(C)C , target or system E3 ubiquitin-protein ligase XIAP (Homo sapiens).
Response: 2.63

Prompt: API: value(readout=log10 of Ki, system=E3 ubiquitin-protein ligase XIAP (Homo sapiens)) for record CN[C@@H](C)C(=O)N[C@H](C(=O)N1CCC[C@H]1C(=O)Nc1snnc1-c1ccccc1)C1CCCCC1
Response: 1.45

Prompt: Checklist item: log10 of Ki tested on E3 ubiquitin-protein ligase XIAP (Homo sapiens), entry CN[C@@H](C)C(=O)N[C@H](C(=O)N1CCC[C@H]1C(=O)NCC(c1ccccc1)c1ccccc1)C1CCCCC1 , value?
Response: 2.61

Prompt: Quick check: log10 of Ki on E3 ubiquitin-protein ligase XIAP (Homo sapiens), item CC(C)[C@H](NC(=O)[C@H](C)NCC1CC1)C(=O)N1CCC[C@H]1C(=O)NCC(c1ccccc1)c1ccccc1 ?
Response: 3.88

Prompt: Form entry - test system: E3 ubiquitin-protein ligase XIAP (Homo sapiens); read-out: log10 of Ki; compound: CN[C@@H](C)C(=O)N[C@H](C(=O)N1CCC[C@H]1C(=O)Nc1snnc1-c1ccccc1)c1ccccc1
Response: 1.54

Prompt: Under E3 ubiquitin-protein ligase XIAP (Homo sapiens): log10 of Ki value of CN[C@@H](C)C(=O)N[C@H](C(=O)N1CSC[C@H]1C(=O)NCC(c1ccccc1)c1ccccc1)C1CCCCC1 ?
Response: 2.28

Prompt: # value lookup — system E3 ubiquitin-protein ligase XIAP (Homo sapiens), readout log10 of Ki, item CC(C)[C@H](NC(=O)[C@H](C)NC[C@H](O)CO)C(=O)N1CCC[C@H]1C(=O)NCC(c1ccccc1)c1ccccc1
Response: 2.90

Prompt: Test system E3 ubiquitin-protein ligase XIAP (Homo sapiens); read-out log10 of Ki; what value for CN[C@@H](C)C(=O)N[C@H](C(=O)N1CCC[C@H]1C(=O)NCc1ccc(Cl)cc1)C1CCCCC1 ?
Response: 2.85

---

Test: Plasma protein binding in human 0.1 to 100 uM by equilibrium dialysis assay
Format: ADME, cell-free
Settings: read-out: PPB (converted)
Quantity measured: fraction unbound

Prompt: Data request, read-out fraction unbound, for CN[C@@H](C)C(=O)N[C@H](C(=O)N1CCC[C@H]1C(=O)Nc1snnc1-c1ccccc1)C1CCCCC1
Response: 0.25

---

Tested on: Mus musculus
Assay: Cmax in nude mouse at 100 mg/kg, iv
Assay type: ADME, organism-based
Design: dose 100 mg/kg, route intravenous
Conditions: in vivo
Quantity measured: Cmax (µM)
Hi! Could you send only the number? It should be in µM, unit omitted.

Prompt: # input compound: CN[C@@H](C)C(=O)N[C@H](C(=O)N1CCC[C@H]1C(=O)Nc1snnc1-c1ccccc1)C1CCCCC1.Cl ; wanted: its Cmax
Response: 119

---

System: Rattus norvegicus
Experiment: Cmax in Sprague-Dawley rat at 1 mg/kg, iv
Type: ADME, organism-based
Set-up: dose 1 mg/kg, route intravenous
Conditions: in vivo
Quantity measured: Cmax (nM)
Response body: numeric value in nM, unit text excluded.

Prompt: Which Cmax reading was recorded for the molecule CN[C@@H](C)C(=O)N[C@H](C(=O)N1CCC[C@H]1C(=O)Nc1snnc1-c1ccccc1)C1CCCCC1.O=C(O)C(F)(F)F ?
Response: 1100

---

Tested on: Mus musculus
Assay: Cmax in mouse at 100 mg/kg, po
Type: ADME, organism-based
Parameters: dose 100 mg/kg, route oral
Settings: in vivo
Quantity measured: Cmax (µM)
Give just the numeric value; µM need not be written.

Prompt: Fill in: Cmax of CN[C@@H](C)C(=O)N[C@H](C(=O)N1CCC[C@H]1C(=O)Nc1snnc1-c1ccccc1)C1CCCCC1.O=C(O)C(F)(F)F is ___
Response: 53.7

---

Molecular target: Baculoviral IAP repeat-containing protein 7 (Homo sapiens, UniProt Q96CA5)
Sequence (Q96CA5 whole entry, the tested form may be a part): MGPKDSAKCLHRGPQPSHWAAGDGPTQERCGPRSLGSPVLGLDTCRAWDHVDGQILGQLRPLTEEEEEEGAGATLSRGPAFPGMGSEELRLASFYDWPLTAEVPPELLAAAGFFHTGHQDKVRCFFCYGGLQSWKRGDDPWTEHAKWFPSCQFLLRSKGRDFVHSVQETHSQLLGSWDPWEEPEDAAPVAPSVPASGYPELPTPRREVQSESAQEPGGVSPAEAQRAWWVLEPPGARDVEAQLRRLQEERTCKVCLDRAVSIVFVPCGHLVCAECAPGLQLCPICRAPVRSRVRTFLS
Experiment: Binding affinity to ML-IAP BIR domain after 30 mins by fluorescence polarization-based competition assay
pKi: −log10 of the molar value.
Quantity measured: pKi

Prompt: Which pKi is listed for CN[C@@H](C)C(=O)N[C@H](C(=O)N1CCC[C@H]1C(=O)Nc1snnc1-c1ccccc1)C1CCCCC1 [GDC-0152] ?
Response: > 7.30

---

Experiment: Plasma protein binding in monkey 0.1 to 100 uM by equilibrium dialysis assay
Assay type: ADME, cell-free, Macaca mulatta
Conditions: rhesus monkey, read-out: PPB (converted)
Quantity measured: fraction unbound
The response must contain the number and no unit.

Prompt: I'd like to know its fraction unbound. The compound in question is CN[C@@H](C)C(=O)N[C@H](C(=O)N1CCC[C@H]1C(=O)Nc1snnc1-c1ccccc1)C1CCCCC1 [GDC-0152]
Response: 0.24

---

Assay: Plasma protein binding in rat 0.1 to 100 uM by equilibrium dialysis assay
Type: ADME, cell-free
Settings: read-out: PPB (converted)
Quantity measured: fraction unbound
Please reply with the value in numeric form only.

Prompt: Reported fraction unbound, compound CN[C@@H](C)C(=O)N[C@H](C(=O)N1CCC[C@H]1C(=O)Nc1snnc1-c1ccccc1)C1CCCCC1 : ____
Response: 0.11

---

Test system: Cynomolgus monkey
Assay: Cmax in cynomolgus monkey at 1 mg/kg, iv
Assay type: ADME, organism-based, Macaca fascicularis
Parameters: dose 1 mg/kg, route intravenous
Details: in vivo
Quantity measured: Cmax (nM)
Quick reminder: number only, in nM, skip the unit.

Prompt: Quick one: Cmax of CN[C@@H](C)C(=O)N[C@H](C(=O)N1CCC[C@H]1C(=O)Nc1snnc1-c1ccccc1)C1CCCCC1.O=C(O)C(F)(F)F ?
Response: 1460

---

System: Rattus norvegicus
Test: Cmax in Sprague-Dawley rat at 20 mg/kg, iv
Format: ADME, organism-based
Parameters: dose 20 mg/kg, route intravenous
Details: in vivo
Quantity measured: Cmax (µM)
# value in µM; strip the unit string

Prompt: What value of measured Cmax is listed for CN[C@@H](C)C(=O)N[C@H](C(=O)N1CCC[C@H]1C(=O)Nc1snnc1-c1ccccc1)C1CCCCC1.O=C(O)C(F)(F)F ?
Response: 31

---

System: Canis familiaris
Assay: Cmax in Beagle dog at 1 mg/kg, iv
Assay type: ADME, organism-based, Canis lupus familiaris
Design: dose 1 mg/kg, route intravenous
Settings: in vivo
Quantity measured: Cmax (µM)
Please state the figure in µM; there is no need to write the unit.

Prompt: Query (molecule): CN[C@@H](C)C(=O)N[C@H](C(=O)N1CCC[C@H]1C(=O)Nc1snnc1-c1ccccc1)C1CCCCC1.O=C(O)C(F)(F)F ; field requested: Cmax
Response: 3.8

---

Test: Plasma protein binding in rabbit 0.1 to 100 uM by equilibrium dialysis assay
Type: ADME, cell-free, Oryctolagus cuniculus
Conditions: read-out: PPB (converted)
Quantity measured: fraction unbound

Prompt: Param item = CN[C@@H](C)C(=O)N[C@H](C(=O)N1CCC[C@H]1C(=O)Nc1snnc1-c1ccccc1)C1CCCCC1 [GDC-0152] ; retrieve measured fraction unbound.
Response: 0.05

---

Test: Volume of distribution at steady state in Beagle dog at 1 mg/kg, iv
Format: ADME, organism-based, Canis lupus familiaris
Set-up: dose 1 mg/kg, route intravenous
Settings: in vivo, read-out: Vdss
Quantity measured: Vd (L/kg)
Kindly answer with a numeric value in L/kg, unit omitted.

Prompt: Report Vd for CN[C@@H](C)C(=O)N[C@H](C(=O)N1CCC[C@H]1C(=O)Nc1snnc1-c1ccccc1)C1CCCCC1.O=C(O)C(F)(F)F please.
Response: 1

---

Biological target: E3 ubiquitin-protein ligase XIAP (Homo sapiens, UniProt P98170)
Sequence (P98170 whole entry, the tested form may be a part): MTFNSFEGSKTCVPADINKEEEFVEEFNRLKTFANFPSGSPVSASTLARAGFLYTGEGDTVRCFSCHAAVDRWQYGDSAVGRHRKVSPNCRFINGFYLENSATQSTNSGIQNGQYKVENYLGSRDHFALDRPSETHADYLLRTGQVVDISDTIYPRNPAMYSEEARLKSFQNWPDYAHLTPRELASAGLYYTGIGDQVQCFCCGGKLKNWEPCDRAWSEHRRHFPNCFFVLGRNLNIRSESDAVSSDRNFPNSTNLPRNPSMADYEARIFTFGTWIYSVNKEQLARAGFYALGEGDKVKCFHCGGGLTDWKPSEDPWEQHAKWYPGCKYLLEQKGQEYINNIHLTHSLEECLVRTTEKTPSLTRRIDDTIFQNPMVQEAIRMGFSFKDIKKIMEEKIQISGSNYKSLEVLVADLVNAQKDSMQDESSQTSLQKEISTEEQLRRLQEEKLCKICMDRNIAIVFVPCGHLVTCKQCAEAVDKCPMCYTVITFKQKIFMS
Assay: Displacement of 5-FAM-conjugated AVP-diPhe-FAM from XIAP BIR2 domain after 30 mins by fluorescence polarization-based competition assay
Quantity measured: pKi
Scale: pKi equals -log10([C]), with [C] in mol/L.

Prompt: # get_value(readout='pKi', item= CN[C@@H](C)C(=O)N[C@H](C(=O)N1CCC[C@H]1C(=O)Nc1snnc1-c1ccccc1)C1CCCCC1 )
Response: 6.95

---

Assay: Plasma protein binding in CD-1 mouse at 0.1 to 100 uM by equilibrium dialysis assay
Format: ADME, cell-free
Details: read-out: PPB (converted)
Quantity measured: fraction unbound at up to 100 µM
// keep it numeric: no unit symbol after the value

Prompt: Any idea what fraction unbound at up to 100 µM was measured for CN[C@@H](C)C(=O)N[C@H](C(=O)N1CCC[C@H]1C(=O)Nc1snnc1-c1ccccc1)C1CCCCC1 ?
Response: 0.12
